system_name: Gap junction alpha-1 protein (Homo sapiens)
assay_name: Inhibition of Cx43 in hypoxic-acidic ion-shifted ringers solution-induced human cerebral microvascular endothelial cell model of ischaemic injury assessed as ATP release at 10 uM measured after 2 hrs by luciferin-luciferase based luminescence assay relative to control
Parameters: scale not given: the % may be the effect or the level left
Where a SMILES comes first, the peptide text is derived from it. The star is where a group is joined. Ethyl(2-stearoyloxy) = CCCCCCCCCCCCCCCCCC(=O)OCC*
property_measured: Activity

Provide only the value of recorded Activity for CCCCCCCCCCCCCCCCCC(=O)OCCSC[C@H](NC(=O)[C@H](CCCCN)NC(=O)[C@H](CCC(=O)O)NC(=O)[C@@H](NC(=O)[C@@H]1CCCN1C(=O)[C@H](CCCNC(=N)N)NC(=O)[C@H](CO)NC(=O)[C@H](CC(C)C)NC(=O)[C@H](Cc1ccccc1)NC(=O)[C@H](CS)NC(=O)[C@H](CC(=O)O)NC(=O)[C@@H](N)C(C)C)[C@@H](C)O)C(=O)O (H-VDCFLSRPTEKC(Ethyl(2-stearoyloxy))-OH)
129%

* * *

system_name: Gap junction alpha-1 protein (Homo sapiens)
assay_name: Inhibition of Cx43 in hypoxic-acidic ion-shifted ringers solution-induced human cerebral microvascular endothelial cell model of ischaemic injury assessed as ATP release at 10 uM measured after 2 hrs by luciferin-luciferase based luminescence assay relative to control
Active and inactive are the calls of the source. The calls are words filed in the database; no cut-off is given here. Where a SMILES comes first, the peptide text is derived from it. [ ]: non-standard residue; d: D form. The star is where a group is joined. Ethyl(2-palmitoyloxy) = CCCCCCCCCCCCCCCC(=O)OCC*; CH2CH2OBz(4-tBu) = CC(C)(C)c1ccc(C(=O)OCC*)cc1; Ethyl(2-decanoyloxy) = CCCCCCCCCC(=O)OCC*; Ethyl(2-OPiv) = CC(C)(C)C(=O)OCC*; Mpa = O=C(O)CCS
property_measured: Activity

Use the examples below as a reference point.
[[record]]
compound = "CCCCCCCCCC(=O)OCCSC[C@H](NC(=O)[C@H](CC(C)C)NC(=O)[C@H](Cc1ccccc1)NC(=O)[C@H](CS)NC(=O)[C@H](CC(=O)O)NC(=O)[C@@H](N)C(C)C)C(=O)N[C@@H](CCCNC(=N)N)C(=O)N1CCC[C@H]1C(=O)N[C@H](C(=O)N[C@@H](CCC(=O)O)C(=O)N[C@@H](CCCCN)C(=O)N[C@H](C(=O)O)[C@@H](C)O)[C@@H](C)O (H-VDCFLC(Ethyl(2-decanoyloxy))RPTEKT-OH)"
property_measured = "Activity"
assay_value = "inactive"

[[record]]
compound = "CCCCCCCCCCCCCCCC(=O)OCCSC[C@H](NC(=O)[C@@H](NC(=O)[C@@H]1CCCN1C(=O)[C@H](CCCNC(=N)N)NC(=O)[C@H](CO)NC(=O)[C@H](CC(C)C)NC(=O)[C@H](Cc1ccccc1)NC(=O)[C@H](CS)NC(=O)[C@H](CC(=O)O)NC(=O)[C@@H](N)C(C)C)[C@@H](C)O)C(=O)N[C@@H](CCCCN)C(=O)N[C@H](C(=O)O)[C@@H](C)O (H-VDCFLSRPTC(Ethyl(2-palmitoyloxy))KT-OH)"
property_measured = "Activity"
assay_value = "114%"

[[record]]
compound = "CCCCCCCCCC(=O)OCCSCCC(=O)N[C@H](C(=O)N[C@@H](CC(=O)O)C(=O)N[C@@H](CS)C(=O)N[C@@H](Cc1ccccc1)C(=O)N[C@@H](CC(C)C)C(=O)N[C@@H](CO)C(=O)N[C@@H](CCCNC(=N)N)C(=O)N1CCC[C@H]1C(=O)N[C@H](C(=O)N[C@@H](CCC(=O)O)C(=O)N[C@@H](CCCCN)C(=O)N[C@H](C(=O)O)[C@@H](C)O)[C@@H](C)O)C(C)C ([Mpa](Ethyl(2-decanoyloxy))VDCFLSRPTEKT-OH)"
property_measured = "Activity"
assay_value = "inactive"

[[record]]
compound = "CC(C)C[C@H](NC(=O)[C@H](Cc1ccccc1)NC(=O)[C@H](CS)NC(=O)[C@H](CC(=O)O)NC(=O)[C@@H](NC(=O)CCSCCOC(=O)c1ccc(C(C)(C)C)cc1)C(C)C)C(=O)N[C@@H](CO)C(=O)N[C@@H](CCCNC(=N)N)C(=O)N1CCC[C@H]1C(=O)N[C@H](C(=O)N[C@@H](CCC(=O)O)C(=O)N[C@@H](CCCCN)C(=O)N[C@H](C(=O)O)[C@@H](C)O)[C@@H](C)O ([Mpa](CH2CH2OBz(4-tBu))VDCFLSRPTEKT-OH)"
property_measured = "Activity"
assay_value = "inactive"

[[record]]
compound = "CC1(C)[C@@H](OC(=O)CCC(=O)O)CC[C@]2(C)[C@H]3C(=O)C=C4[C@@H]5C[C@@](C)(C(=O)O)CC[C@]5(C)CC[C@@]4(C)[C@]3(C)CC[C@@H]12"
property_measured = "Activity"
assay_value = "23.3%"


Provide only the value of recorded Activity for CC(C)C[C@H](NC(=O)[C@H](CSCCOC(=O)c1ccc(C(C)(C)C)cc1)NC(=O)[C@H](CS)NC(=O)[C@H](CC(=O)O)NC(=O)[C@@H](N)C(C)C)C(=O)N[C@@H](CO)C(=O)N[C@@H](CCCNC(=N)N)C(=O)N1CCC[C@H]1C(=O)N[C@H](C(=O)N[C@@H](CCC(=O)O)C(=O)N[C@@H](CCCCN)C(=O)N[C@H](C(=O)O)[C@@H](C)O)[C@@H](C)O (H-VDCC(CH2CH2OBz(4-tBu))LSRPTEKT-OH)
inactive

Provide only the value of recorded Activity for CC(C)C[C@H](NC(=O)[C@H](CSCCOC(=O)C(C)(C)C)NC(=O)[C@H](CS)NC(=O)[C@H](CC(=O)O)NC(=O)[C@@H](N)C(C)C)C(=O)N[C@@H](CO)C(=O)N[C@@H](CCCNC(=N)N)C(=O)N1CCC[C@H]1C(=O)N[C@H](C(=O)N[C@@H](CCC(=O)O)C(=O)N[C@@H](CCCCN)C(=O)N[C@H](C(=O)O)[C@@H](C)O)[C@@H](C)O (H-VDCC(Ethyl(2-OPiv))LSRPTEKT-OH)
23.4%
